- measured.target: INOS (Rattus norvegicus)
- method: INOS activity by oxidation of ferrous myoglobin by product NO
- Format: biochemical
- Design: unit not given here
- test.context: peptide 0.3 mg/ml; no peptide: 12.3 ± .19
Reported INOS activity 0.3 mg/ml values follow for various sequences

// known answers, use as guide
| construct.sequence | INOS activity 0.3 mg/ml |
| --- | --- |
| DDVVSLEHET [BO58-04, 24] | 14.9 ± .56 |
| QHKSYKIRFNSVSCSDPLVSSWRRKRKE [JX3, 15] | 7.9 ± .11 |

Please tell me the measured INOS activity 0.3 mg/ml for SSPRPEQHKSYKIRFNSVSCSDPLVSSWRRKRKESS [JX2, 14] ; system: INOS (Rattus norvegicus).
7.7 ± .11

Enter INOS activity 0.3 mg/ml (test system INOS (Rattus norvegicus)) for QEERKSYKVRFNSVSSYSDSQKSSGDGPDL [JX4, 19]
10.4 ± .57
